Data provenance is PubChem BioAssay AID330.

- Tested on: P388 leukemia ip, CD2F1 mice, survival T/C
- Assay Notes: NCI In Vivo Anticancer Drug Screen. Data for tumor model P388 Leukemia (intraperitoneal) in CD2F1 (CDF1) mice
- Run Parameters: endpoint: median survival time; dose: 100.0 mg/kg/injection; schedule: Q01DX009 (ip); vehicle: distilled water + Tween-80; higher = longer survival
Toxic doses and inconclusive results are not listed.
Record form. Attribute: T/C. Fill in for each entry.

Past entries and their recorded results:
Nc1ccc([N+](=O)[O-])cc1 ... 103 % of control
COC1=C(NC(C)=O)C(=O)c2nc(-c3nc(C(=O)O)c(C)c(-c4ccc(OC)c(OC)c4O)c3N)ccc2C1=O ... 119 % of control
Cc1ccc2c(c1)C(=S)NC(=O)C2 ... 91 % of control
CCOC(=O)c1cc2c(OC)c(OC)ccc2c2[nH]cc(C#N)c(=O)c12 ... 90 % of control
COC(=O)C(NC(=O)OCc1ccccc1)C(C)O (stereo not drawn) ... 105 % of control
CCOC(=O)c1[nH]c(=O)[nH]c(=O)c1CBr ... 98 % of control

State recorded T/C for all listed molecules.
1. CC(=O)OCC1OC(n2cc(CBr)nn2)C(OC(C)=O)C(OC(C)=O)C1OC(C)=O (stereo not drawn)
2. CCOC(=O)Cc1cc2c(cc1C)CN=C(OCC)C2

Solution:
1: 90 % of control; 2: 91 % of control

====

- Test system: P388 leukemia ip, CD2F1 mice, survival T/C
- Assay Notes: NCI In Vivo Anticancer Drug Screen. Data for tumor model P388 Leukemia (intraperitoneal) in CD2F1 (CDF1) mice
- Run Parameters: endpoint: median survival time; dose: 100.0 mg/kg/injection; schedule: Q01DX009 (ip); vehicle: other; higher = longer survival
Toxic doses and inconclusive results are not listed.
Property Name: T/C

[N-]=[N+]=NCC(=O)N1c2ccccc2Sc2ccccc21 ... 95 % of control
O=C1c2ccccc2C(=O)c2c(NCCN3CCCCC3)ccc(NCCN3CCCCC3)c21 ... 121 % of control
CCCCCCCCCCCC(=O)CCCCC ... 90 % of control

State recorded T/C for all listed compounds.
1. COc1ccc(C(=O)c2ncccc2C)cc1OC
2. CCCCCCCCCCCSSCCCCCCCCCCC
3. CCOC(=O)C(CSC(c1ccccc1)(c1ccccc1)c1ccccc1)NC(=O)CCNC(=O)c1ccccc1 (stereo not drawn)
4. Cc1ccc(S)c(C(O)(C(F)(F)F)C(F)(F)F)c1

Solution:
1. 99 % of control
2. 100 % of control
3. 95 % of control
4. 100 % of control

Problem: So what's the measured T/C for this one? COc1ccc(C(=O)c2ncccc2C(=O)O)cc1OC
Solution: 100 % of control

====

- Tested on: P388 leukemia ip, CD2F1 mice, survival T/C
- Assay Notes: NCI In Vivo Anticancer Drug Screen. Data for tumor model P388 Leukemia (intraperitoneal) in CD2F1 (CDF1) mice
- Run Parameters: endpoint: median survival time; dose: 400.0 mg/kg/injection; schedule: Q01DX005 (ip); vehicle: saline with Tween-80
Toxic doses and inconclusive results are not listed. The calls were made as follows: active = survival T/C of 150% or more; inactive = T/C below 125% in these data.
Respond using exactly one of the listed classes: active, inactive

CC(NNC(=S)N1CCCCCC1)c1cc2ccccc2cn1 (centres undefined) ... active
Cc1ccc(N(O)C(=O)c2ccccc2)c(C)c1 ... inactive
[Mn+2].[O-]c1cc(Br)ccc1/C=N/Nc1ccccn1.[O-]c1cc(Br)ccc1/C=N/Nc1ccccn1 ... inactive

As a next step, examine the compound that follows.
Problem: State the result this test recorded for Cc1c(COC(=O)NC(C)C)c(COC(=O)NC(C)C)c2n1CCS2(=O)=O .
Solution: inactive
